Where do the numbers come from? From ChEMBL document CHEMBL1821616.

system: T-24; experiment: Cytotoxicity against human T24 cells assessed as cell survival at 100 uM after 72 hrs by neutral red dye assay; format: functional; conditions: T-24, 72 h, read-out: Survival
Kindly supply the reported viability at 100 µM values for the records listed here.

Known results for molecules:
INSERT INTO assay_data (compound, measured_property, test_result) VALUES
  ('CCCCCNc1nc(NCCCCC)c2ccccc2n1', 'viability at 100 µM', '< 45%'),
  ('Brc1ccc(CCNc2nc(NCCc3ccc(Br)cc3)c3ccccc3n2)cc1', 'viability at 100 µM', '< 45%'),
  ('CCCCCCNc1nc(NCCCCCC)c2ccccc2n1', 'viability at 100 µM', '< 45%');

Here is another molecule to look at.
Provide viability at 100 µM, tested on T-24, for c1ccc2c(CCNc3nc(NCCc4c[nH]c5ccccc45)c4cccnc4n3)c[nH]c2c1 . < 45%

====

Give measured viability at 72 h, up to 100 µM for each item. Keep answers brief.
assay: Cytotoxicity against human CRL11233 cells assessed as cell survival at 20 to 100 uM after 72 hrs by neutral red dye assay; format: cell-based; details: read-out: Survival
Give bare numbers, in %.

Solved entries:
INSERT INTO results (compound, measured_property, test_result) VALUES
  ('Clc1ccc(CNc2nc(NCc3ccc(Cl)cc3)c3ccccc3n2)cc1', 'viability at 72 h, up to 100 µM', 0),
  ('c1ccc(CNc2nc(NCc3ccccc3)c3ccccc3n2)cc1', 'viability at 72 h, up to 100 µM', 100),
  ('CCCCCNc1nc(NCCCCC)c2ccccc2n1', 'viability at 72 h, up to 100 µM', 5),
  ('c1ccc(CCNc2nc(NCCc3ccccc3)c3ccccc3n2)cc1', 'viability at 72 h, up to 100 µM', 100),
  ('c1ccc(CCNc2ccnc(NCCc3ccccc3)n2)cc1', 'viability at 72 h, up to 100 µM', 5),
  ('c1ccc(CNc2ccnc(NCc3ccccc3)n2)cc1', 'viability at 72 h, up to 100 µM', 0),
  ('CCCCCNc1nc(SCC)nc2ncccc12', 'viability at 72 h, up to 100 µM', 100),
  ('Brc1ccc(CCNc2nc(NCCc3ccc(Br)cc3)c3cccnc3n2)cc1', 'viability at 72 h, up to 100 µM', 100),
  ('COc1ccc(CNc2nc(NCc3ccc(OC)cc3)c3cccnc3n2)cc1', 'viability at 72 h, up to 100 µM', 100),
  ('CCCCCCNc1nc(SCCCC)nc2ncccc12', 'viability at 72 h, up to 100 µM', 99);

Count: 2. Required value per item: viability at 72 h, up to 100 µM.
1. c1ccc(CCCCNc2nc(NCCCCc3ccccc3)c3ccccc3n2)cc1
2. CCCNc1nc(NCCC)c2ccccc2n1

11
66

# return viability at 72 h, up to 100 µM for each item in the list
1. Clc1ccc(CNc2nc(NCc3ccc(Cl)cc3)c3cccnc3n2)cc1
2. CCCCCNc1nc(NCCCCC)c2cccnc2n1
3. COc1ccc(CNc2nc(NCc3ccc(OC)cc3)c3ccccc3n2)cc1
4. CCCCCCCNc1nc(SCC)nc2ncccc12
5. c1ccc(CNc2nc(NCc3ccccc3)c3cccnc3n2)cc1
6. c1ccc(CCNc2nc(NCCc3ccccc3)c3cccnc3n2)cc1
7. Brc1ccc(CCNc2nc(NCCc3ccc(Br)cc3)c3ccccc3n2)cc1
8. Cc1ccc(CCNc2nc(NCCc3ccc(C)cc3)c3ccccc3n2)cc1

1: 100; 2: 54; 3: 100; 4: 100; 5: 90; 6: 0; 7: 1; 8: 0

I have 2 molecules here; please give me viability at 72 h, up to 100 µM for each one.
1. CCCCCNc1nc(SCCCC)nc2ncccc12
2. Cc1ccc(CNc2nc(NCc3ccc(C)cc3)c3ccccc3n2)cc1

76
33
